Where these numbers come from: the RNAGym collection of RNA variant scans (doi:10.7554/elife.80360)

B1: CPEB3 Ribozyme (parent)
chain: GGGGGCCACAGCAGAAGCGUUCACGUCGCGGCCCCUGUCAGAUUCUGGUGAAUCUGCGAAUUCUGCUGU

# Variants of: B1
# assay: self-cleavage, relative activity (ratio to wild type); higher = more cleavage; co-transcriptional
param class (str): category from self-cleavage; see ranges low (below 0.5), medium (0.5 to below 0.9), high (0.9 or more)

[
  {
    "primary-sequence": "GGGGGCCACAGUAGAAGCGUUCACGUCGCGGCCCCUGUCAGAUUCUGGUGAAUCUGAGAAUUCUGCUGU",
    "qualitative-label": "low"
  }
]

Pending variant:
Query string: Textbook exercise: identify the category of the variant given here, GGGGGCCACAGCAGAAGCGUUCACGUCGCGCCCCCUGUCAGAUUCUGGUGAGUCUGCGAAUUCUGCUGU , according to its measured value.
Result string: low
